Biological target: CXCR5 (Homo sapiens, UniProt P32302)
Construct: expressed in transfected cells
Sequence (P32302 whole entry): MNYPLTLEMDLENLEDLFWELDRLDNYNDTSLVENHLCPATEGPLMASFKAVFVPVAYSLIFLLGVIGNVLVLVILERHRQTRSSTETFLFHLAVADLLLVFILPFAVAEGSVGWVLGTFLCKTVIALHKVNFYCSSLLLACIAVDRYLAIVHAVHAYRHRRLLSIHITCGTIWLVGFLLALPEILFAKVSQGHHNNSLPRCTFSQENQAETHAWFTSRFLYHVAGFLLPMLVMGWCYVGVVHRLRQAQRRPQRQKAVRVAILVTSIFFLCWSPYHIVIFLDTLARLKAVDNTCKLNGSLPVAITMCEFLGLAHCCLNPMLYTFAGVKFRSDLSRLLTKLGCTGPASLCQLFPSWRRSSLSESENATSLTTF
Test: Figure S2a opioid peptide screen on chemokine receptors
Format: cell-based
Set-up: dose or concentration left out as unconfirmed
Conditions: replicate 1, read-out: CXCR5 activity, ctrl+ = 100
Starred links: 1 amine or outer side, 2 acyl side, 3 side chain; linkers in the order of their positions; H or OH if unused. Non-standard residues stand in square brackets, D forms with d. Residues, ends and D or L forms follow the SMILES beside them. X1 = N[C@@H](Cc1ccccc1)CN(CC(=O)[*:2])[*:1]
PROPERTY: activation (%)
Field: numeric (%). Do not append units.

In: Return the recorded activation value; entry: C[C@H](NC(=O)CNC(=O)[C@@H](NC(=O)[C@H](Cc1ccccc1)NC(=O)CNC(=O)CNC[C@@H](N)Cc1ccccc1)[C@@H](C)O)C(=O)N[C@@H](CCCNC(=N)N)C(=O)N[C@@H](CCCCN)C(=O)N[C@@H](CO)C(=O)N[C@@H](C)C(=O)N[C@@H](CCCNC(=N)N)C(=O)N[C@@H](CCCCN)C(N)=O [FG Nociceptin 1-13] (H-[X1]GFTGARKSARK-NH2)
Out: -5.41

In: Return the recorded activation value; entry: CC[C@H](C)[C@H](NC(=O)[C@H](CCCNC(=N)N)NC(=O)[C@H](CCCNC(=N)N)NC(=O)[C@H](CC(C)C)NC(=O)[C@H](Cc1ccccc1)NC(=O)CNC(=O)CNC(=O)[C@@H](N)Cc1ccc(O)cc1)C(=O)N[C@@H](CCCNC(=N)N)C(=O)N1CCC[C@H]1C(=O)N[C@@H](CCCCN)C(=O)N[C@@H](CC(C)C)C(=O)N[C@@H](CCCCN)C(=O)N[C@@H](Cc1c[nH]c2ccccc12)C(=O)N[C@@H](CC(=O)O)C(=O)N[C@@H](CC(N)=O)C(=O)N[C@@H](CCC(N)=O)C(=O)O
Out: -1.81

In: Return the recorded activation value; entry: CC(C)C[C@H](NC(=O)[C@H](Cc1ccccc1)NC(=O)CNC(=O)CNC(=O)[C@@H](N)Cc1ccc(O)cc1)C(=O)N[C@@H](CCCN=C(N)N)C(=O)N[C@@H](CCCN=C(N)N)C(=O)N[C@@H](CCC(N)=O)C(=O)N[C@@H](Cc1ccccc1)C(=O)N[C@@H](CCCCN)C(=O)N[C@H](C(=O)N[C@H](C(=O)N[C@H](C(=O)O)[C@@H](C)O)C(C)C)C(C)C
Out: -2.46
